Reference source: patent EP0200024B1

system: Narkotisierter Hund; assay: Anaesthetised dog i.v. (left ventricular pressure dp/dtmax, arterial pressure); type: in vivo, Bastardhunden; conditions: Canis lupus familiaris, iv, read-out: 50%ige Steigerung des Kontraktilitätsparameters dp/dtmax bei einer Dosis von
readoutName: ED50 (µmol/kg)
Give bare numbers, in µmol/kg.

Completed entries (count: 3):
>>> val("CC(=O)OCCNc1ncc(-c2ccncc2)cc1C#N [Beispiel 4.1]")
1.4
>>> val("CCC(=O)OCCNc1ncc(-c2ccncc2)cc1C#N [Beispiel 4.5]")
2
>>> val("CC(=O)OCCOc1ncc(-c2ccncc2)cc1C#N [Beispiel 4.3]")
2.5

GET /values?readout=ED50&item= Cc1nc(N2CCOCC2)c(C#N)cc1-c1ccncc1 [Beispiel 3.2]
6.1
